Origin of the recorded values: patent US20230038720A1

- study_system: TACE
- assay_overview: cell-based or functional assay
measured_property: TACE IC50 (µg/mL)

• cyclo(GVCICRRRFCSCRR) (disulfide (positions not given here); not fully specified (bridges)) [Peptide 7] = 1.87

(A) cyclo(GVCICRRRVCICGR) (disulfide (positions not given here); not fully specified (bridges)) [Peptide 1]
(B) cyclo(GVCICRRRFCLCRR) (disulfide (positions not given here); not fully specified (bridges)) [Peptide 2]
input: // max by TACE IC50 over [ A , B ] Please identify the chosen entry by its label.
output: B
